- study_system: Albumin (Bos taurus, UniProt P02769)
- Sequence (P02769 whole entry): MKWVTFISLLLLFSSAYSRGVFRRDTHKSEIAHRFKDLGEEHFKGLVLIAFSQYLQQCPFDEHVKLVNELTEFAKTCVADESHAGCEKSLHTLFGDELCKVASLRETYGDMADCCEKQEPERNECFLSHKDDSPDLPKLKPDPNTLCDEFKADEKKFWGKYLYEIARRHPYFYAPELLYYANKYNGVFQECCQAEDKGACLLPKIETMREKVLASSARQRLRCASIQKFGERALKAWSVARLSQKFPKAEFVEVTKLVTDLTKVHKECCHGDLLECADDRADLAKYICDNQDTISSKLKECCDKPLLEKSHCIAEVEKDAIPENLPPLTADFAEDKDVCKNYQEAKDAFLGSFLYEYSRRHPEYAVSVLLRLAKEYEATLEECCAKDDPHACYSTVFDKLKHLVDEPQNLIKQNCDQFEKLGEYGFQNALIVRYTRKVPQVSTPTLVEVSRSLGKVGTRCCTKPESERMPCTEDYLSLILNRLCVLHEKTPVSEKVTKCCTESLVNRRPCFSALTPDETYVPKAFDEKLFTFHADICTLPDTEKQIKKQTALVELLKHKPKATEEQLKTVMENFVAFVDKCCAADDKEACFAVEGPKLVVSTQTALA
- procedure_summary: Binding affinity to bovine serum albumin assessed as hypochromicity at 5 to 40 uM by fluorescence emission spectrum analysis method relative to control
- Type: ADME
- test_parameters: cattle, isolated protein
# label = 1 (yes) if Activity >= 200% else 0 (no)

input: For this compound, is measured Activity 200% or higher? O=[N+]([O-])c1ccc(NC(=S)N/N=C\c2ccnc3ccccc23)cc1
output: 0 (no)

input: Input S=C(N/N=C\c1ccnc2ccccc12)Nc1ccc(Cl)cc1
output: 0 (no)

input: Input S=C(N/N=C\c1ccnc2ccccc12)Nc1cccc2ccccc12
output: 1 (yes)

input: Input C=CCNC(=S)N/N=C\c1ccnc2ccccc12
output: 1 (yes)

input: Input S=C(N/N=C\c1ccnc2ccccc12)Nc1ccc(Br)cc1
output: 1 (yes)

input: Input Fc1ccc(NC(=S)N/N=C\c2ccnc3ccccc23)cc1
output: 1 (yes)

input: Input CCc1ccc(NC(=S)N/N=C\c2ccnc3ccccc23)cc1
output: 1 (yes)

input: Input COc1ccc(NC(=S)N/N=C\c2ccnc3ccccc23)cc1
output: 1 (yes)

input: Input S=C(N/N=C\c1ccnc2ccccc12)Nc1cccnc1
output: 1 (yes)

input: Input Cc1ccc(NC(=S)N/N=C\c2ccnc3ccccc23)cc1
output: 1 (yes)

input: Input S=C(NCCc1ccccc1)N/N=C\c1ccnc2ccccc12
output: 0 (no)

input: Input S=C(N/N=C\c1ccnc2ccccc12)Nc1ccccc1
output: 0 (no)
